Give pIC50 for every item shown.
TEST_TARGET: Acetylcholinesterase (Bos taurus, UniProt P23795)
Sequence (P23795 whole entry): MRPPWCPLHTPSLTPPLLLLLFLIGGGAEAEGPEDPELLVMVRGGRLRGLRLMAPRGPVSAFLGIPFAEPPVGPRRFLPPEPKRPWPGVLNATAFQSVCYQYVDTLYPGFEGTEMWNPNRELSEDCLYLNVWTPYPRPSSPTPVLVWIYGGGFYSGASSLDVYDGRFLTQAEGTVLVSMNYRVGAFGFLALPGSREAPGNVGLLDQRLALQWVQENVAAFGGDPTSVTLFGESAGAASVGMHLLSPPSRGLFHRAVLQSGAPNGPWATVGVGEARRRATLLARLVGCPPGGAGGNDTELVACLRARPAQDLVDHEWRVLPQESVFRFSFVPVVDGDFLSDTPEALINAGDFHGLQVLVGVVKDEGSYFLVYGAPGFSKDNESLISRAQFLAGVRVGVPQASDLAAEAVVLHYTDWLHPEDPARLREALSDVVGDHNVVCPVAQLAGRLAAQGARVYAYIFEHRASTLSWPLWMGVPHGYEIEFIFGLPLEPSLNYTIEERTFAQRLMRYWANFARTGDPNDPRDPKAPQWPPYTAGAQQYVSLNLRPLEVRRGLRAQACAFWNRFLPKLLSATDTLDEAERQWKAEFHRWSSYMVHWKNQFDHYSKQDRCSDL
The read-out pIC50 is expressed as -log10 of concentration in moles per litre.

Give the measured pIC50 of "C=CCNC(=O)N1N=C(OS(C)(=O)=O)CC1(C)C" .
3.83

Thanks! And "CC(C)NC(=O)N1N=C(OS(C)(=O)=O)CC1(C)C" ?
3.15

Thanks! And CC(C)NC(=O)N1N=C(OS(C)(=O)=O)CC1c1ccccc1 (configuration not stated) ?
4.39

###

TEST_TARGET: Acetylcholinesterase (Bos taurus)
Give pIC50 for every item shown.
The read-out pIC50 is expressed as -log10 of concentration in moles per litre.

Give the measured pIC50 of CCCS(=O)(=O)N1N=C(OS(C)(=O)=O)CC1c1ccccc1 (stereo not drawn) .
4.20

Thanks! And "CC(C)CS(=O)(=O)c1cccc(OS(C)(=O)=O)n1" ?
4.22
